Measured Pf_72h_%Growth_Rep1 accompanies every entry in the list below.
tested on: P. falciparum 3D7 parasites; test: P. falciparum growth inhibition assay, 1-cycle (72 h treatment), SYBR DNA staining (library screen at 2 μg/mL and dose-response); type: cell-based, Plasmodium falciparum; conditions: P. falciparum 3D7, 72 h, library screen at 2 μg/mL, % growth, replicate 1
// return numeric value only (unit: %, not printed)

Name the recorded Pf_72h_%Growth_Rep1 for CCC(C)C1OC2(CCC1C)CC1CC(CC=C(C)C(OC3CC(OC)C(O)C(C)O3)C(C)C=CC=C3COC4C(O)C(C)=CC(C(=O)O1)C34O)O2 (stereo not drawn) .
84.82

Next:
Name the recorded Pf_72h_%Growth_Rep1 for CCC(C=CC1OC(=O)C=CC1C)=CC(C)CC=CC(C)=CC(C)C(=O)C(C)C(O)C(C)CC(C)=CC(=O)O (stereo not drawn) .
6.41

* * *

Measured Tg_72h_%Growth_Rep2 accompanies every entry in the list below.
test system: T. gondii RH strain (RH-Tub-eYFP) tachyzoites; test: microbe, parasite or virus in culture; assay type: cell-based, Toxoplasma gondii; settings: library screen at 2 μg/mL, 72 h, % growth, replicate 2
Answer with the number, then the unit.

Name the recorded Tg_72h_%Growth_Rep2 for COC1=C(N)C(=O)c2nc(-c3nc(C(=O)O)c(C)c(-c4cccc(OC)c4O)c3N)ccc2C1=O .
4.20%

Name the recorded Tg_72h_%Growth_Rep2 for COc1oc([C@H]2C/C(=C/C(C)=C/c3ccc([N+](=O)[O-])cc3)CO2)c(C)c(=O)c1C .
65.05%

Name the recorded Tg_72h_%Growth_Rep2 for CC(=O)NCCc1ccc(O)cc1 .
89.14%

Next:
Name the recorded Tg_72h_%Growth_Rep2 for O=C(/C=C/C=C/C=C/C1CCCCC1)NC1=C[C@@](O)(/C=C/C=C/C=C/C(=O)NC2=C(O)CCC2=O)[C@@H]2O[C@@H]2C1=O .
93.58%

* * *

system: P. falciparum 3D7 parasites; assay: P. falciparum growth inhibition assay, 2-cycle (120 h treatment), delayed-death screen and dose-response; type: cell-based, Plasmodium falciparum; conditions: Plasmodium falciparum, 3D7; P. falciparum, 120 h, screen at 2 μg/mL, replicate 1; read-out: Pf_120h_%Growth_Rep1
Measured activity at 2 µg/mL accompanies every entry in the list below.
// return numeric value only (unit: %, not printed)

Some solved cases for reference:
# returns recorded activity at 2 µg/mL (system: P. falciparum 3D7 parasites) for CC[C@H]1OC(=O)[C@H](C)[C@@H](O[C@H]2C[C@@](C)(OC)[C@@H](O)[C@H](C)O2)[C@H](C)[C@@H](O[C@@H]2O[C@H](C)C[C@H](N(C)C)[C@H]2O)[C@](C)(OC)C[C@@H](C)C(=O)[C@H](C)[C@@H](O)[C@]1(C)O [Clarithromycin]
31.2

# returns recorded activity at 2 µg/mL (system: P. falciparum 3D7 parasites) for COc1cc(-c2ccc(O)cc2)c(OC)c(O)c1-c1ccc(O)cc1 [Terphenyllin]
179

# returns recorded activity at 2 µg/mL (system: P. falciparum 3D7 parasites) for C=C(CC[C@]12O[C@H](C(=O)O)[C@@](O)(C(=O)O)[C@](C(=O)O)(O1)[C@H](OC(=O)/C=C/[C@@H](C)C[C@@H](C)CC)[C@H]2O)[C@@H](OC(C)=O)[C@H](C)Cc1ccccc1 [Zaragozic acid A]
104

# returns recorded activity at 2 µg/mL (system: P. falciparum 3D7 parasites) for COC(=O)/C(=C1/OC(=O)C(c2ccccc2)=C1O)c1ccccc1 [Vulpinic acid]
84.9

# returns recorded activity at 2 µg/mL (system: P. falciparum 3D7 parasites) for CC[C@H]1OC(=O)C[C@@H](O)[C@H](C)[C@@H](O[C@@H]2O[C@H](C)[C@@H](O)[C@H](N(C)C)[C@H]2O)[C@@H](CCN2CCCCC2)C[C@@H](C)C(=O)/C=C/C(C)=C/[C@@H]1CN1CCCCC1 [Tildipirosin]
9.99

--- query ---
# returns recorded activity at 2 µg/mL (system: P. falciparum 3D7 parasites) for O=C(O)/C=C/c1ccccc1 [Cinnamic acid]
147
